Recorded TGI, one value per entry.
tested on: NCI-H226 lung; assay: NCI tumour cell line growth inhibition, 48 h

Study these solved cases before continuing.
Compound	TGI
COc1ccc(Cc2ccc3[nH]c(=O)cc(C)c3c2)cc1S(=O)(=O)O	> 100 µM
Nc1ccc(C(=O)CC2(O)C(=O)Nc3ccccc32)cc1 (configuration not stated)	> 100 µM
Cc1ccc([N+](=O)[O-])cc1NC(=O)C(=O)Cc1nc2ccc(C(=O)c3ccccc3)cc2[nH]c1=O	> 100 µM
COc1ccc(-c2oc3ncnc(N)c3c2-c2ccc(NC(=O)Nc3cc(C(F)(F)F)ccc3F)cc2)cc1	8.36 µM

TGI reading for Nc1nncc2n[nH]nc12 : > 100 µM

TGI reading for Cc1ccccc1SC(/C=C/NNC1=NC(c2ccccc2)C(c2ccccc2)=NN1)c1ccccc1 (configuration not stated) : 52 µM

TGI reading for CCCC(=O)Oc1ccc(/C=N/NC(N)=S)nc1 : > 100 µM

TGI reading for COc1ccccc1N1C(=O)CSC1c1cccc(Oc2ccccc2)c1 (configuration not stated) : 36.9 µM

TGI reading for Cc1cn(C(CO)OC(CO)CN(O)C2C3CC4CC(C3)CC2C4)c(=O)[nH]c1=O (configuration not stated) : > 100 µM
